Biological target: FimH-CRD (Escherichia coli)
Construct: The first 177 amino acids of the FimH protein; thrombin tag (printed as 'fusion protein with thrombin') (cleaved yes)
Test: Competitive binding assay by fluorescence polarization, assay 1 (compounds prepared by manual serial dilution)
Property Name: log10 of IC50 (log10 of the value in µM)
Values are log10 of IC50 in µM.

Sample answers from the record:
{"columns": ["Compound", "log10 of IC50"],
 "data": [
  ["Cc1nnc(-c2ccc(Oc3cccc([C@H]4O[C@H](CO)[C@@H](O)[C@H](O[C@H]5O[C@H](CO)[C@@H](O)[C@H](O)[C@@H]5O)[C@@H]4O)c3)cc2)o1 [Compound 272]", -1.34],
  ["OCc1ccccc1-c1cccc([C@H]2O[C@H](CO)[C@@H](O)[C@H](O)[C@@H]2O)c1 [Compound 13]", -0.71],
  ["OC[C@H]1O[C@H](c2cccc(-c3cncnc3)c2)[C@@H](O)[C@@H](O)[C@@H]1O [Compound 10]", -1.00]
]}

Please give log10 of IC50 for each item listed below.
1. COC(=O)Cc1ccccc1-c1cccc([C@H]2O[C@H](CO)[C@@H](O)[C@H](O)[C@@H]2O)c1 [Compound 66]
2. COC(=O)CCc1ccc(OC)c([C@H]2O[C@H](CO)[C@@H](O)[C@H](O)[C@@H]2O)c1 [Compound 42]

RESULT:
1: -1.62; 2: -0.65

For each of the items listed, what is its log10 of IC50?
1. COC(=O)Cc1cccc(-c2cccc([C@H]3O[C@H](CO)[C@@H](O)[C@H](O)[C@@H]3O)c2)c1 [Compound 65]
2. Cn1cnc2ccc(-c3cccc([C@H]4O[C@H](CO)[C@@H](O)[C@H](O[C@H]5O[C@H](CO)[C@@H](O)[C@H](O)[C@@H]5O)[C@@H]4O)c3)cc21 [Compound 280]

RESULT:
1: -1.74; 2: -1.23

---

Biological target: FimH-CRD (Escherichia coli, UniProt P08191)
Construct: The first 177 amino acids of the FimH protein; thrombin tag (printed as 'fusion protein with thrombin') (cleaved yes); made in house; host or cells: bacteria (pET21b plasmid)
Sequence (P08191 22-177): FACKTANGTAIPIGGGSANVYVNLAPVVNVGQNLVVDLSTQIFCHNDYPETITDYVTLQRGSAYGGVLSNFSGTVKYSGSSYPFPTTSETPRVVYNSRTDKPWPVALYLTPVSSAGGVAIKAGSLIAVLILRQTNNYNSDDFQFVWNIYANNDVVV
Assay: Competitive binding assay by fluorescence polarization, assay 1 (compounds prepared by manual serial dilution)
Property Name: pKd
Numbers only, as −log10 of the molar value.

Some molecules with recorded pKd:
{"columns": ["Molecule", "pKd"],
 "data": [
  ["COC(=O)c1cc(C(=O)OC)cc(-c2cccc([C@H]3O[C@H](CO)[C@@H](O)[C@H](O)[C@@H]3O)c2)c1", 8.26],
  ["CNC(=O)c1cc(Oc2cccc([C@H]3O[C@H](CO)[C@@H](O)[C@H](O)[C@@H]3O)c2)cc(C(=O)NC)c1", 7.82],
  ["COc1ccc(C2O[C@H](CO)[C@@H](O)[C@H](O[C@H]3O[C@H](CO)[C@@H](O)[C@H](O)[C@@H]3O)[C@@H]2O)cc1Oc1ccc(NC(=O)C(C)C)cc1 (some centres unmarked)", 7.92],
  ["COC(=O)c1cccc(-c2ccc([C@H]3O[C@H](CO)[C@@H](O)[C@H](O)[C@@H]3O)cc2)c1", 7.96]
]}

For every item below, please supply its pKd.
1. O=C(Nc1ccc2[nH]ccc2c1)c1cccc([C@H]2O[C@H](CO)[C@@H](O)[C@H](O)[C@@H]2O)c1
2. OC[C@H]1O[C@H](c2cccc(-c3ccc4cc(O)ccc4c3)c2)[C@@H](O)[C@@H](O)[C@@H]1O
3. O=C(NCc1ccccc1)c1cccc([C@H]2O[C@H](CO)[C@@H](O)[C@H](O)[C@@H]2O)c1
4. CNC(=O)COc1cccc([C@H]2O[C@H](CO)[C@@H](O)[C@H](O[C@H]3O[C@H](CO)[C@@H](O)[C@H](O)[C@@H]3O)[C@@H]2O)c1
5. OC[C@H]1O[C@H](c2cccc(O)c2)[C@@H](O)[C@@H](O)[C@@H]1O
6. COC(=O)c1cccc(Oc2ccc([C@H]3O[C@H](CO)[C@@H](O)[C@H](O)[C@@H]3O)cc2)c1

RESULT:
[7.43, 8.07, 7.54, 7.54, 7.91, 8.27]

meta.source: patent US20130261077A1
